Numbers sourced from patent US7875647B2.

- SYSTEM: Cannabinoid-1 receptor (CB1R) (Rattus norvegicus)
- Construct: The tissue obtained from the brain of SD rats was homogenized; from tissue; host or cells: brain of SD rats (membrane pellet of the homogenate)
- MEASUREMENT NOTES: Cannabinoid-1 receptor (CB1R) binding affinity assay ([3H]CP-55940, rat CB-1 receptor binding protocol)
- RUN PARAMETERS: brain tissue of SD rats, [3H]CP-55940, 30° C. 60 min; read-out: IC50
We begin with a simple list: items and their reported IC50.

SMILES STRING	IC50 / nM
CCc1c(-c2nnc(C3(c4ccc(OC)cc4)CC3)s2)nn(-c2ccc(Cl)cc2Cl)c1-c1ccc(Br)cc1	4.53
CC(C)c1c(-c2nnc(C3(c4ccc(Cl)cc4)CCC3)o2)nn(-c2ccc(Cl)cc2Cl)c1-c1ccc(Cl)cc1	22.5
Clc1ccc(-c2c(Cn3cncn3)c(-c3nnc(C4CCC4)o3)nn2-c2ccc(Cl)cc2Cl)cc1	3.42
COCc1c(-c2nnc(C(C)(C)C)o2)nn(-c2ccc(Cl)cc2Cl)c1-c1ccc(Cl)cc1	15.4

---

- SYSTEM: Cannabinoid-1 receptor (CB1R) (Rattus norvegicus)
- Construct: The tissue obtained from the brain of SD rats was homogenized; from tissue; host or cells: brain of SD rats (membrane pellet of the homogenate)
- MEASUREMENT NOTES: Cannabinoid-1 receptor (CB1R) binding affinity assay ([3H]CP-55940, rat CB-1 receptor binding protocol)
- RUN PARAMETERS: brain tissue of SD rats, [3H]CP-55940, 30° C. 60 min; read-out: IC50
pIC50: −log10 of the molar value.
We begin with a simple list: items and their reported pIC50.
ENDPOINT NAME: pIC50

SMILES STRING	ENDPOINT NAME	RECORDED RESULT
CCc1c(-c2nnc(C3(c4ccc(Cl)cc4Cl)CC3)s2)nn(-c2ccc(Cl)cc2Cl)c1-c1ccc(Cl)cc1	pIC50	8.40
Clc1ccc(-c2c(Cn3cncn3)c(-c3nnc(C4(c5ccc(Cl)cc5)CCCC4)s3)nn2-c2ccc(Cl)cc2Cl)cc1	pIC50	8.72
Cc1c(-c2nnc(-c3cnccn3)o2)nn(-c2ccc(Cl)cc2Cl)c1-c1ccc(Cl)cc1	pIC50	6.71
Cc1c(-c2n[nH]c(C(C)C)n2)nn(-c2ccc(Cl)cc2Cl)c1-c1ccc(Cl)cc1	pIC50	6.85
Cc1c(-c2nnn(Cc3ccoc3)n2)nn(-c2ccc(Cl)cc2Cl)c1-c1ccc(Cl)cc1	pIC50	6.71
Clc1ccc(-c2c(Cn3cncn3)c(-c3nnc(C4CCCCC4)o3)nn2-c2ccc(Cl)cc2Cl)cc1	pIC50	8.47
FCc1c(-c2nnc(C3(c4ccc(Cl)cc4)CC3)o2)nn(-c2ccc(Cl)cc2Cl)c1-c1ccc(Cl)cc1	pIC50	8.10

---

We begin with a simple list: items and their reported pIC50.
- SYSTEM: Cannabinoid-1 receptor (CB1R) (Rattus norvegicus, UniProt P20272)
- Construct: The tissue obtained from the brain of SD rats was homogenized; from tissue; host or cells: brain of SD rats (membrane pellet of the homogenate)
- Sequence (P20272 whole entry): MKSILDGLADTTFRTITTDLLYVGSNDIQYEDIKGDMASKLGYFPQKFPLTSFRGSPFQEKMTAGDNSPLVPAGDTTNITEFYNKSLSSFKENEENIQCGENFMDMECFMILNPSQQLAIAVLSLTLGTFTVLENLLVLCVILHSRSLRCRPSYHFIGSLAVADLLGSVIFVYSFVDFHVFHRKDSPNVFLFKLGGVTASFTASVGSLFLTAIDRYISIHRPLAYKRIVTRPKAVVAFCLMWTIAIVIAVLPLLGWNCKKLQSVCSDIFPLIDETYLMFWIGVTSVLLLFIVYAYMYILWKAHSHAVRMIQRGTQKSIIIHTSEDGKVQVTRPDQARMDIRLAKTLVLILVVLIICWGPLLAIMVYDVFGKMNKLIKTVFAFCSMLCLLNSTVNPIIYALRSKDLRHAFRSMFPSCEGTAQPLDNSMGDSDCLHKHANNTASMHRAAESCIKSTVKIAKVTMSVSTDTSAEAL
- MEASUREMENT NOTES: Cannabinoid-1 receptor (CB1R) binding affinity assay ([3H]CP-55940, rat CB-1 receptor binding protocol)
- RUN PARAMETERS: brain tissue of SD rats, [3H]CP-55940, 30° C. 60 min; read-out: IC50
pIC50: −log10 of the molar value.

COMPOUND	SYSTEM	pIC50
CC(C)(C)c1nnc(-c2nn(-c3ccccc3Cl)c(-c3ccc(Cl)cc3)c2Cn2cncn2)o1	Cannabinoid-1 receptor (CB1R) (Rattus norvegicus, UniProt P20272)	8.65
CC(C)(C)c1nnc(-c2nn(-c3ccc(Cl)cc3Cl)c(-c3ccc(Cl)cc3)c2Br)o1	Cannabinoid-1 receptor (CB1R) (Rattus norvegicus, UniProt P20272)	7.52
CC(=O)c1c(-c2nnc(C3(c4ccc(Cl)cc4)CC3)o2)nn(-c2ccc(Cl)cc2Cl)c1-c1ccc(Cl)cc1	Cannabinoid-1 receptor (CB1R) (Rattus norvegicus, UniProt P20272)	7.97
CC(C)(C)c1nnc(-c2nn(-c3ccc(Cl)cc3Cl)c(-c3ccc(Cl)cc3)c2CC#N)o1	Cannabinoid-1 receptor (CB1R) (Rattus norvegicus, UniProt P20272)	8.21
CCCC(C)c1nnc(-c2nn(-c3ccc(Cl)cc3Cl)c(-c3ccc(Cl)cc3)c2C)s1 (stereo not shown)	Cannabinoid-1 receptor (CB1R) (Rattus norvegicus, UniProt P20272)	7.87
CSCc1c(-c2nnc(C(C)(C)C)o2)nn(-c2ccc(Cl)cc2Cl)c1-c1ccc(SC)cc1	Cannabinoid-1 receptor (CB1R) (Rattus norvegicus, UniProt P20272)	7.59
CCc1c(-c2nnc(C3(c4ccc(Cl)cc4)CC3)s2)nn(-c2ccc(Cl)cc2Cl)c1-c1ccc(Br)cc1 [Example 432]	Cannabinoid-1 receptor (CB1R) (Rattus norvegicus, UniProt P20272)	8.10

---

- SYSTEM: Cannabinoid-1 receptor (CB1R) (Rattus norvegicus)
- Construct: The tissue obtained from the brain of SD rats was homogenized; from tissue; host or cells: brain of SD rats (membrane pellet of the homogenate)
- MEASUREMENT NOTES: Cannabinoid-1 receptor (CB1R) binding affinity assay ([3H]CP-55940, rat CB-1 receptor binding protocol)
- RUN PARAMETERS: brain tissue of SD rats, [3H]CP-55940, 30° C. 60 min; read-out: IC50
- Experimental: The tissue obtained from the brain of SD rats was homogenized with a Dounce homogenate system in TME (50 mM Tris, 3 mM MgCl2 and 1 mM EDTA, pH 7.4) at 4° C., and the homogenate was centrifuged at 48,000 g for 30 min. at 4° C. […] The tissue concentrations were determined by Bradford protein analysis, and 148 μl of brain tissue of the required concentration was added to the plate. […]
pIC50: −log10 of the molar value.
We begin with a simple list: items and their reported pIC50.

COMPOUND	pIC50
Cc1c(-c2nnn(Cc3ccco3)n2)nn(-c2ccc(Cl)cc2Cl)c1-c1ccc(Cl)cc1	7.03
CCC(C)c1nnc(-c2nn(-c3ccccc3Cl)c(-c3ccc(Br)cc3)c2C)s1 (centres unmarked)	7.80
CC(C)(C)c1nnc(-c2nn(-c3ccc(Cl)cc3Cl)c(-c3ccc(Cl)cc3)c2Cn2cccn2)o1	7.69
COc1ccc(C2(c3nnc(-c4nn(-c5ccc(Cl)cc5Cl)c(-c5ccc(Cl)cc5)c4C)s3)CC2)cc1	7.59
Cc1c(-c2n[nH]c(C3CC3)n2)nn(-c2ccc(Cl)cc2Cl)c1-c1ccc(Cl)cc1	6.89
Cc1c(-c2nc(C3CCCC3)n(C)n2)nn(-c2ccc(Cl)cc2Cl)c1-c1ccc(Cl)cc1	6.43
CCc1c(-c2nnc(C(C)(C)C)s2)nn(-c2ccc(Cl)cc2Cl)c1-c1ccc(Cl)cc1	7.95
Cc1c(-c2nnc(CC3CCCC3)o2)nn(-c2ccc(Cl)cc2Cl)c1-c1ccc(Cl)cc1	7.45

---

- SYSTEM: Cannabinoid-1 receptor (CB1R) (Rattus norvegicus, UniProt P20272)
- Construct: The tissue obtained from the brain of SD rats was homogenized; from tissue; host or cells: brain of SD rats (membrane pellet of the homogenate)
- MEASUREMENT NOTES: Cannabinoid-1 receptor (CB1R) binding affinity assay ([3H]CP-55940, rat CB-1 receptor binding protocol)
- RUN PARAMETERS: brain tissue of SD rats, [3H]CP-55940, 30° C. 60 min; read-out: IC50
pIC50: −log10 of the molar value.

COMPOUND	SYSTEM	pIC50
CCc1c(-c2nnc(C3(CC)CC3)s2)nn(-c2ccc(Cl)cc2Cl)c1-c1ccc(Cl)cc1	Cannabinoid-1 receptor (CB1R) (Rattus norvegicus, UniProt P20272)	7.70
Cc1c(-c2nnc(Cc3ccccc3)s2)nn(-c2ccc(Cl)cc2Cl)c1-c1ccc(Cl)cc1	Cannabinoid-1 receptor (CB1R) (Rattus norvegicus, UniProt P20272)	7.59
Cc1c(-c2nnn(Cc3ccsc3)n2)nn(-c2ccc(Cl)cc2Cl)c1-c1ccc(Cl)cc1	Cannabinoid-1 receptor (CB1R) (Rattus norvegicus, UniProt P20272)	7.11
CCc1c(-c2nnc(C3(c4ccccc4)CC3)o2)nn(-c2ccc(Cl)cc2Cl)c1-c1ccc(Cl)cc1	Cannabinoid-1 receptor (CB1R) (Rattus norvegicus, UniProt P20272)	8.22
Cc1c(-c2nnc(C3(c4ccc(Cl)cc4)CC3)o2)nn(-c2ccc(Cl)cc2Cl)c1-c1ccc(Cl)cc1	Cannabinoid-1 receptor (CB1R) (Rattus norvegicus, UniProt P20272)	8.06
Cc1c(-c2n[nH]c(C3CCCCC3)n2)nn(-c2ccc(Cl)cc2Cl)c1-c1ccc(Cl)cc1	Cannabinoid-1 receptor (CB1R) (Rattus norvegicus, UniProt P20272)	6.64
CCCc1c(-c2nnc(C3(c4ccc(Cl)cc4)CCC3)o2)nn(-c2ccc(Cl)cc2Cl)c1-c1ccc(Cl)cc1	Cannabinoid-1 receptor (CB1R) (Rattus norvegicus, UniProt P20272)	7.95
Clc1ccc(-c2c(Br)c(-c3nnc(C4CCCCC4)s3)nn2-c2ccc(Cl)cc2Cl)cc1	Cannabinoid-1 receptor (CB1R) (Rattus norvegicus, UniProt P20272)	7.04
Cc1ccc(C2(c3nnc(-c4nn(-c5ccc(Cl)cc5Cl)c(-c5ccc(Cl)cc5)c4C)s3)CC2)cc1	Cannabinoid-1 receptor (CB1R) (Rattus norvegicus, UniProt P20272)	7.70
Cc1c(-c2nnnn2Cc2cccnc2)nn(-c2ccc(Cl)cc2Cl)c1-c1ccc(Cl)cc1	Cannabinoid-1 receptor (CB1R) (Rattus norvegicus, UniProt P20272)	6.99
CCc1c(-c2nnc(C(C)(C)c3ccccc3)s2)nn(-c2ccc(Cl)cc2Cl)c1-c1ccc(Br)cc1	Cannabinoid-1 receptor (CB1R) (Rattus norvegicus, UniProt P20272)	8.29
COC(C)(C)c1nnc(-c2nn(-c3ccc(Cl)cc3Cl)c(-c3ccc(Cl)cc3)c2C)o1	Cannabinoid-1 receptor (CB1R) (Rattus norvegicus, UniProt P20272)	7.47
C=Cc1c(-c2nnc(C(C)(C)C)o2)nn(-c2ccc(Cl)cc2Cl)c1-c1ccc(Cl)cc1	Cannabinoid-1 receptor (CB1R) (Rattus norvegicus, UniProt P20272)	7.77
CCc1c(-c2nnc(C3(Cc4ccc(Cl)cc4)CC3)s2)nn(-c2ccc(Cl)cc2Cl)c1-c1ccc(Br)cc1	Cannabinoid-1 receptor (CB1R) (Rattus norvegicus, UniProt P20272)	8.18
CCc1c(-c2nnc(C3(c4ccccc4)CC3)s2)nn(-c2ccc(Cl)cc2Cl)c1-c1ccc(Br)cc1 [Example 475]	Cannabinoid-1 receptor (CB1R) (Rattus norvegicus, UniProt P20272)	8.06
Cc1c(-c2nnc(C(C)Cc3ccccc3)s2)nn(-c2ccc(Cl)cc2Cl)c1-c1ccc(Cl)cc1 (stereo not drawn)	Cannabinoid-1 receptor (CB1R) (Rattus norvegicus, UniProt P20272)	7.47
Cc1c(-c2n[nH]c(C3CCC3)n2)nn(-c2ccc(Cl)cc2Cl)c1-c1ccc(Cl)cc1	Cannabinoid-1 receptor (CB1R) (Rattus norvegicus, UniProt P20272)	6.46
CCc1c(-c2nnc(C3CCCCC3)s2)nn(-c2ccc(Cl)cc2Cl)c1-c1ccc(Cl)cc1	Cannabinoid-1 receptor (CB1R) (Rattus norvegicus, UniProt P20272)	7.74
CC(C)(C)c1nnc(-c2nn(-c3ccc(Cl)cc3Cl)c(-c3ccc(Cl)cc3)c2Br)s1	Cannabinoid-1 receptor (CB1R) (Rattus norvegicus, UniProt P20272)	7.64
Cc1c(-c2nnc(C3(C(F)(F)F)CCC3)o2)nn(-c2ccc(Cl)cc2Cl)c1-c1ccc(Cl)cc1	Cannabinoid-1 receptor (CB1R) (Rattus norvegicus, UniProt P20272)	7.79
COc1ccc(-c2c(C)c(-c3nnc(C4(c5ccc(Cl)cc5)CC4)o3)nn2-c2ccc(Cl)cc2Cl)cc1	Cannabinoid-1 receptor (CB1R) (Rattus norvegicus, UniProt P20272)	8.00
Cc1c(-c2nnc(C3CCC3)s2)nn(-c2ccc(Cl)cc2Cl)c1-c1ccc(Br)cc1	Cannabinoid-1 receptor (CB1R) (Rattus norvegicus, UniProt P20272)	7.46
CC(F)c1c(-c2nnc(C(C)(C)C)o2)nn(-c2ccc(Cl)cc2Cl)c1-c1ccc(Br)cc1 (stereo not drawn)	Cannabinoid-1 receptor (CB1R) (Rattus norvegicus, UniProt P20272)	7.92
CCc1c(-c2nnc(C(CC)CC)s2)nn(-c2ccc(Cl)cc2Cl)c1-c1ccc(Br)cc1	Cannabinoid-1 receptor (CB1R) (Rattus norvegicus, UniProt P20272)	7.64
CCC(C)c1nnc(-c2nn(-c3ccccc3Cl)c(-c3ccc(Cl)cc3)c2C)s1 (stereo not drawn)	Cannabinoid-1 receptor (CB1R) (Rattus norvegicus, UniProt P20272)	7.74
Cc1nnc(-c2nn(-c3ccc(Cl)cc3Cl)c(-c3ccc(Cl)cc3)c2C)s1	Cannabinoid-1 receptor (CB1R) (Rattus norvegicus, UniProt P20272)	7.01
CCC(C)c1nnc(-c2nn(-c3ccc(Cl)cc3Cl)c(-c3ccc(Cl)cc3)c2Br)s1 (stereo not drawn)	Cannabinoid-1 receptor (CB1R) (Rattus norvegicus, UniProt P20272)	7.28
Cc1c(-c2ncc(C(C)(C)C)s2)nn(-c2ccc(Cl)cc2Cl)c1-c1ccc(Cl)cc1	Cannabinoid-1 receptor (CB1R) (Rattus norvegicus, UniProt P20272)	7.90
C=CCOC(C)(C)c1nnc(-c2nn(-c3ccc(Cl)cc3Cl)c(-c3ccc(Br)cc3)c2CC)o1	Cannabinoid-1 receptor (CB1R) (Rattus norvegicus, UniProt P20272)	7.74
Cc1c(-c2nnc(C3CCC3)s2)nn(-c2ccc(Cl)cc2Cl)c1-c1cccc(Cl)c1	Cannabinoid-1 receptor (CB1R) (Rattus norvegicus, UniProt P20272)	6.05
